# measured-target: T1, hen egg-white lysozyme (hen, UniProt P00698 19-147)
# T1 construct: also called HEL
# T1 sequence (P00698 19-147): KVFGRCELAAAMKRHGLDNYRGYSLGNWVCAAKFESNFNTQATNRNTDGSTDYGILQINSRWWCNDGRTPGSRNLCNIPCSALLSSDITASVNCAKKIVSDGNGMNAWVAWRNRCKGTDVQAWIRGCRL
# protocol-description: Biacore kinetics, HEL immobilised on CM5 chip, buffer E (reducing), 25 °C, 1:1 Langmuir model
readout-label: koff (s⁻¹)

// known answers, use as guide
{"binder": "H4S cysteine mutant V21C (not conjugated) (designed binder, Free cysteine mutant, measured in reducing conditions) MRGSHHHHHHGSVKVKFFWNGEEKEVDTSKICWVKRAGKSVLFIYDDNGKNGYGDVTEKDAPKELLDMLARAEREKKLN", "koff [s⁻¹]": 0.011}
{"binder": "H4S cysteine mutant A26C (not conjugated) (designed binder, Free cysteine mutant, measured in reducing conditions) MRGSHHHHHHGSVKVKFFWNGEEKEVDTSKIVWVKRCGKSVLFIYDDNGKNGYGDVTEKDAPKELLDMLARAEREKKLN", "koff [s⁻¹]": 0.023}
{"binder": "H4S cysteine mutant W8C (not conjugated) (designed binder, Free cysteine mutant, measured in reducing conditions) MRGSHHHHHHGSVKVKFFCNGEEKEVDTSKIVWVKRAGKSVLFIYDDNGKNGYGDVTEKDAPKELLDMLARAEREKKLN", "koff [s⁻¹]": 0.03}
{"binder": "H4S(wt) (designed binder, Nanofitin derived from Sac7d (Sulfolobus acidocaldarius), H4 with Cys29 changed into Ser29; His-tagged; also called H4S protein; parental Nanofitin H4S(wt)) MRGSHHHHHHGSVKVKFFWNGEEKEVDTSKIVWVKRAGKSVLFIYDDNGKNGYGDVTEKDAPKELLDMLARAEREKKLN", "koff [s⁻¹]": 0.015}

A = H4S(K24C) (not conjugated) (designed binder, Free cysteine mutant, measured in reducing conditions) MRGSHHHHHHGSVKVKFFWNGEEKEVDTSKIVWVCRAGKSVLFIYDDNGKNGYGDVTEKDAPKELLDMLARAEREKKLN
B = H4S cysteine mutant K39C (not conjugated) (designed binder, Free cysteine mutant, measured in reducing conditions) MRGSHHHHHHGSVKVKFFWNGEEKEVDTSKIVWVKRAGKSVLFIYDDNGCNGYGDVTEKDAPKELLDMLARAEREKKLN
Prompt line: // returns A or B , whichever has the lower koff When you have decided, please share the label of that item.
Response line: B
